Please go through the items and note down their log10(EC50).
tested on: PK1 neuroblastoma cells exposed to TPrP; test: cells; format: cell-based; details: PK-1, 96 h, read-out: TPrP EC50
Log scale reminder: EC50 in nM, then log10 taken.

Just so you know, measured log10(EC50) for COc1ccc2oc(Nc3nnc(Cc4ccncc4)c4ccccc34)nc2c1 came out at 1.30

The compound listed as COc1ccc(CNc2nnc(Cc3ccncc3)c3ccccc23)cc1OC has a reported log10(EC50) of 2.18

The value of log10(EC50) measured for the compound C/C(=N\O)c1cccc(Nc2nnc(Cc3ccncc3)c3ccccc23)c1 turned out to be 0.30

Data point: c1ccc2c(NCC3CCCCO3)nnc(Cc3ccncc3)c2c1 (centres unmarked) ; log10(EC50) = 1.78

compound CC(=O)c1cccc(Nc2nnc(C(C)c3ccncc3)c3ccccc23)c1 (centres unmarked) , log10(EC50) observed: 1.65

Recorded log10(EC50) (compound O=S(=O)(c1cccc(Nc2nnc(Cc3ccncc3)c3ccccc23)c1)N1C2CCC1COC2 ): 0.85

Entry c1ccc2oc(CNc3nnc(Cc4ccncc4)c4ccccc34)nc2c1 ; log10(EC50) = 1.65

Recorded log10(EC50) (compound CC(O)c1cccc(Nc2nnc(Cc3ccncc3)c3ccccc23)c1 (centres unmarked) ): 0.30

The compound listed as c1ccc2c(c1)CC(CNc1nnc(Cc3ccncc3)c3ccccc13)CO2 (centres unmarked) shows log10(EC50) equal to 2.22

For record c1ccc2c(c1)ccc1oc(Nc3nnc(Cc4ccncc4)c4ccccc34)nc12 the listed log10(EC50) is 2.13

For each of the compounds below, state log10(EC50).
1. c1ccc2cc3oc(Nc4nnc(Cc5ccncc5)c5ccccc45)nc3cc2c1
2. c1coc(CNc2nnc(Cc3ccncc3)c3ccccc23)c1
3. CC1(c2cccc(Nc3nnc(Cc4ccncc4)c4ccccc34)c2)OCCO1
4. O=[N+]([O-])c1ccc2oc(Nc3nnc(Cc4ccncc4)c4ccccc34)nc2c1

2.40
2.15
0.30
1.30
